Measurement target: apical domain of CD71 (Screen 3: 'cynomolgus apical domain of human CD71') (cynomolgus (as paragraph 454 words it; ambiguous))
Assay explanation: primary ELISA
Property label: RLU (RLU)
Give bare numbers, in RLU.

Binder	Unit abbrev	RLU
CD71-binding FN3 domain SEQ ID NO: 263 (designed binder) MSLPAPKNLVVSRVTEDSARLSWTAPDAAFDSFEIGYFENLYLGEAIVLTVPGSERSYDLTGLKPGTEYWVQIGGVKGGNWSSPLSAIFTT	RLU	5.51e+06
CD71-binding FN3 domain SEQ ID NO: 271 (designed binder) MSLPAPKNLVVSRITEDSARLSWTAPDAAFDSFEIGYWENAYKGEAIVLTVPGSERSYDLTGLKPGTEYVVFIGGVKGGVWSVPLSAIFTT	RLU	4.94e+06
CD71-binding FN3 domain SEQ ID NO: 240 (designed binder) MSLPAPKNLVVSRVTEDSARLSWTAPDAAFDSFHIWYFEKANEGEAIPLVVPGSERSYDLTGLKPGTEYDVDIGGVKGGAWSIPLGARFTT	RLU	6.83e+06

Turning now to a further binder:
Could you tell me which RLU is on file for CD71-binding FN3 domain SEQ ID NO: 286 (designed binder) MSLPAPKNLVVSRVTEDSARLSWTAPDAAFDSFEIVYAEPVRFGEAIVLTVPGSERSYDLTGLKPGTEYWVQIGGVKGGEWSSPLSAIFTT ?
5.31e+06

Hey, just so you know, these numbers are from patent US20260151494A1.
